Test: Base-induced decomposition of hydroxy dioxetanes (first order decay of chemiluminescence)
Type: physicochemical
Conditions: 37° C.; 0.2M 2-methyl-2-amino-1-propanol buffer pH 9.6, 0.88 mM Mg+2, 1.0 mg/mL Enhancer A
quantityKind: t1/2 of decay of chemiluminescence (min)

molecule | obsValue
Oc1cccc(C2(OCC(F)F)OOC23C2CC4CC(C2)CC3C4)c1 (stereo not shown) [Dioxetane 7] | 2.8

A = Oc1cccc(C2(OCC(F)(F)F)OOC23C2CC4CC(C2)CC3C4)c1 (stereo not shown) [Dioxetane 3]
B = Oc1cccc(C2(OCCF)OOC23C2CC4CC(C2)CC3C4)c1 (stereo not shown) [Dioxetane 8]
C = COC1(c2cccc(O)c2)OOC12C1CC3CC(C1)CC2C3 (stereo not shown) [Dioxetane 1]
Q: Rank items: key t1/2 of decay of chemiluminescence, increasing. Answer format: the labels, in the requested order.
A: A, B, C
(A: 2.0 min, B: 6.1 min, C: 15.9 min)
